# EXPERIMENTAL DETAILS: in vivo
# Format: in vivo
# SETUP CONDITIONS: in vivo; Method F, brine shrimp larvae, 24 hour mortalities
QUANTITY MEASURED: LC50 at 24 h (µg/mL)

O=[N+]([O-])NC1=NCCN1Cc1ccc(Cl)nc1 [Imidacloprid, reference compound] : 0.0312

###

# System: brine shrimp A. salina larvae
# EXPERIMENTAL DETAILS: in vivo
# Format: in vivo
# SETUP CONDITIONS: Method F, 24 hour mortalities
// assign YES if LC50 falls strictly below 100 µg/mL, else NO (ties count as NO)

COC1OC(C2CC(C)([Se]c3ccccc3)C(=O)O2)C2OC12 (stereo not shown) : NO
CC1(C)OC2OC(C3CC(C)([Se]c4ccccc4)C(=O)O3)C(OCc3ccccc3)C2O1 (stereo not shown) : NO
CC1=C[C@H]([C@H]2O[C@@H]3OC(C)(C)O[C@@H]3[C@@H]2OCc2ccccc2)OC1=O : YES
CC1(C)O[C@H]2O[C@H]([C@H]3C=CC(=O)O3)[C@@H](OCc3ccccc3)[C@H]2O1 : NO
CC(=O)OC[C@H]1OC(=O)C(Br)=C[C@@H]1OC(C)=O : YES
CC1(C)O[C@H]2O[C@H]([C@H]3C=CC(=O)O3)[C@H](OCc3ccccc3)[C@H]2O1 : NO

###

# Tested on: adult fruit fly (D. melanogaster)
# EXPERIMENTAL DETAILS: Method A: topical treatment of adult fruit fly
# Type: in vivo, Drosophila melanogaster
# SETUP CONDITIONS: Method A, topical, adult fruit flies, 24 hour mortalities
QUANTITY MEASURED: LD50 (µg/insect)

CC(=O)OC[C@H]1OC(=O)C(Br)=C[C@@H]1OC(C)=O [Compound 5] : 0.00016
O=[N+]([O-])NC1=NCCN1Cc1ccc(Cl)nc1 [Imidacloprid, reference compound] : 0.01253
COC1OC(C2CC(C)([Se]c3ccccc3)C(=O)O2)C2OC12 (stereo not shown) [Compound 6] : 0.00015
CC1(C)OC2OC(C3CC(C)([Se]c4ccccc4)C(=O)O3)C(OCc3ccccc3)C2O1 (stereo not shown) [Compound 8] : 0.00037
CC1(C)O[C@H]2O[C@H]([C@H]3C=CC(=O)O3)[C@H](OCc3ccccc3)[C@H]2O1 [Compound 4] : 0.00012
CC1=C[C@H]([C@H]2O[C@@H]3OC(C)(C)O[C@@H]3[C@H]2OCc2ccccc2)OC1=O [Compound 1] : 0.00002
